tested on: rat DGAT2 mRNA; assay: Dose-dependent inhibition of DGAT2 in A10 cells, 6.25-200 nM (Example 22, Table 82); assay type: cell-based; settings: 12.5 nM
Strand notation (5' to 3'): a small letter for the sugar, then the base; units joined by * are phosphorothioate-linked, units joined directly phosphodiester-linked; [ ] holds rarer units or linkages, { } end groups; capitals alone tell only the bases. e = 2'-O-(2-methoxyethyl) (MOE); [5mC] = 5-methylcytosine; d = 2'-deoxy (DNA)
Listed substances paired with reported percent inhibition of DGAT2
Hey, just send me the number, nothing else.

Look over these answered cases.
Reported percent inhibition of DGAT2, substance 372562 (antisense eG*eT*d[5mC]*dT*dT*dG*dG*dA*dG*dG*dG*d[5mC]*e[5mC]*eG) [compound 372562] : ____
0

Reported percent inhibition of DGAT2, substance 372602 (antisense e[5mC]*e[5mC]*dA*dG*dG*d[5mC]*dA*dT*dG*dG*dA*dG*e[5mC]*eT) [compound 372602] : ____
0

Reported percent inhibition of DGAT2, substance 372586 (antisense eG*eT*dT*d[5mC]*d[5mC]*dT*dG*dG*dT*dG*dG*dT*e[5mC]*eA) [compound 372586] : ____
0

Reported percent inhibition of DGAT2, substance 372618 (antisense eG*eT*dG*dG*dT*dA*d[5mC]*dA*dG*dG*dT*d[5mC]*eG*eA) [compound 372618] : ____
5

Attention now turns to another entry.
Reported percent inhibition of DGAT2, substance 372568 (antisense eG*eA*d[5mC]*dA*d[5mC]*dT*dG*d[5mC]*dA*dG*dG*d[5mC]*e[5mC]*eA) [compound 372568] : ____
0

====

test system: PCSK9 mRNA; type: cell-based, human; conditions: Hep3B cells, 100 nM, relative to untreated control cells
Strand notation (5' to 3'): a small letter for the sugar, then the base; units joined by * are phosphorothioate-linked, units joined directly phosphodiester-linked; [ ] holds rarer units or linkages, { } end groups; capitals alone tell only the bases. e = 2'-O-(2-methoxyethyl) (MOE); [5mC] = 5-methylcytosine; d = 2'-deoxy (DNA)
Listed substances paired with reported % Inhibition Range (PCSK9 mRNA)

Look over these answered cases.
Reported % Inhibition Range (PCSK9 mRNA), substance 400311 (eA*eT*d[5mC]*d[5mC]*d[5mC]*dG*dG*d[5mC]*d[5mC]*dG*d[5mC]*dT*eG*eA; antisense) [compound 400311] : ____
10-20%

Reported % Inhibition Range (PCSK9 mRNA), substance 400362 (antisense e[5mC]*eG*dG*d[5mC]*dA*dG*d[5mC]*dA*dG*dA*dT*dG*eG*e[5mC]) [compound 400362] : ____
10-20%

Reported % Inhibition Range (PCSK9 mRNA), substance 400304 (antisense eG*eA*dG*dA*dT*dA*d[5mC]*dA*d[5mC]*d[5mC]*dT*d[5mC]*e[5mC]*eA) [compound 400304] : ____
10-20%

Reported % Inhibition Range (PCSK9 mRNA), substance 400307 (e[5mC]*eG*dG*d[5mC]*d[5mC]*dG*d[5mC]*dT*dG*dA*d[5mC]*d[5mC]*eA*e[5mC]; antisense) [compound 400307] : ____
70-80%

Reported % Inhibition Range (PCSK9 mRNA), substance 400368 (antisense e[5mC]*eG*dG*d[5mC]*dT*d[5mC]*d[5mC]*dG*dG*d[5mC]*dA*dG*e[5mC]*eA) [compound 400368] : ____
10-20%

Next:
Reported % Inhibition Range (PCSK9 mRNA), substance 400306 (antisense e[5mC]*eT*dG*dT*d[5mC]*dA*d[5mC]*dA*d[5mC]*dT*dT*dG*e[5mC]*eT) [compound 400306] : ____
40-50%

Reported % Inhibition Range (PCSK9 mRNA), substance 400358 (antisense eA*eT*dG*dG*d[5mC]*dA*dG*d[5mC]*dA*dG*dG*dA*eA*eG) [compound 400358] : ____
10-20%

====

Listed substances paired with reported % change in SGLT2 expression relative to saline
Test system: rat SGLT2 mRNA
Test: Rat SGLT2 mRNA levels in kidney, 1-10-1 gapmers at 250 nmol/kg, Sprague-Dawley rats (Example 14, Table 66)
Format: in vivo
Conditions: 250 nmol/kg i.p. twice per week for three weeks; Sprague-Dawley rats; kidney
Description: The effect of the above 1-10-1gapmers (see Table 64 above) on rat SGLT2 mRNA levels. Data are taken from four experiments in which male Sprague-Dawley rats (170-200 g) were dosed twice per week for three weeks with 250 nmol/kg given by intraperitoneal injection. Rats were sacrificed 48 hours following last administration and evaluated for SGLT2 mRNA levels in kidney. Target levels were determined by RT, real-time PCR as described by other examples herein. […]
Strand notation (5' to 3'): a small letter for the sugar, then the base; units joined by * are phosphorothioate-linked, units joined directly phosphodiester-linked; [ ] holds rarer units or linkages, { } end groups; capitals alone tell only the bases. e = 2'-O-(2-methoxyethyl) (MOE); [5mC] = 5-methylcytosine; d = 2'-deoxy (DNA)
Output spec: scalar in %, unitless text.

Reported % change in SGLT2 expression relative to saline, substance ISIS 379702: targeted to SGLT2 (antisense eG*d[5mC]*dA*d[5mC]*dA*d[5mC]*dA*dG*d[5mC]*dT*dG*e[5mC]) : ____
−25

Reported % change in SGLT2 expression relative to saline, substance ISIS 379699: SGLT2; GGCATGAGCTTC 1-10-1 MOE (antisense eG*dG*d[5mC]*dA*dT*dG*dA*dG*d[5mC]*dT*dT*e[5mC]) : ____
−75

Reported % change in SGLT2 expression relative to saline, substance ISIS 381408: SGLT2; 1-10-1 MOE gapmer (antisense TACCGAACACCT; sugars from the 5' end e1 d10 e1, backbone and methylation of C not given here) : ____
−5

Reported % change in SGLT2 expression relative to saline, substance ISIS 379692: SGLT2; 1-10-1 MOE gapmer (antisense eT*dG*dT*dT*d[5mC]*d[5mC]*dA*dG*d[5mC]*d[5mC]*d[5mC]*eA) : ____
−85

Reported % change in SGLT2 expression relative to saline, substance ISIS 370717: SGLT2; TAGCCACCAACT 1-10-1 MOE gapmer, phosphorothioate (sugars from the 5' end e1 d10 e1, all phosphorothioate, methylation of C not given here) : ____
−70

====

system: PTP1B mRNA; assay: Dose response for human PTP1B in HuVEC cells, Primer Probe Set 3000 (Example 25, Table 87); assay type: cell-based; details: PPS 3000, 30.0 nM
Strand notation (5' to 3'): a small letter for the sugar, then the base; units joined by * are phosphorothioate-linked, units joined directly phosphodiester-linked; [ ] holds rarer units or linkages, { } end groups; capitals alone tell only the bases. e = 2'-O-(2-methoxyethyl) (MOE); [5mC] = 5-methylcytosine; d = 2'-deoxy (DNA)
Listed substances paired with reported % Inhibition of PTP1B mRNA
Output spec: scalar in %, unitless text.

Look over these answered cases.
Reported % Inhibition of PTP1B mRNA, substance 399276 (antisense eG*eA*dG*dG*dT*dA*dT*d[5mC]*d[5mC]*d[5mC]*dA*dT*e[5mC]*eT) [compound 399276] : ____
86

Reported % Inhibition of PTP1B mRNA, substance 399096 (antisense eT*eG*d[5mC]*dT*d[5mC]*dG*dA*dA*d[5mC]*dT*d[5mC]*d[5mC]*eT*eT) [compound 399096] : ____
94

Reported % Inhibition of PTP1B mRNA, substance 398120 (antisense eG*eT*dT*d[5mC]*dA*dA*dG*d[5mC]*dG*dG*d[5mC]*d[5mC]*eT*eA) [compound 398120] : ____
93

Reported % Inhibition of PTP1B mRNA, substance 399102 (antisense eG*eA*dA*dG*dT*d[5mC]*dA*d[5mC]*dT*dG*dG*d[5mC]*eT*eT) [compound 399102] : ____
87

Reported % Inhibition of PTP1B mRNA, substance 398112 (antisense e[5mC]*eA*dG*d[5mC]*d[5mC]*dT*dG*dG*d[5mC]*dA*d[5mC]*d[5mC]*eT*eA) [compound 398112] : ____
94

Next:
Reported % Inhibition of PTP1B mRNA, substance 399315 (antisense eG*eG*d[5mC]*dA*dA*d[5mC]*dT*dT*d[5mC]*dA*dA*d[5mC]*e[5mC]*eT) [compound 399315] : ____
93

Reported % Inhibition of PTP1B mRNA, substance 398173 (antisense e[5mC]*dA*dG*d[5mC]*d[5mC]*dT*dG*dG*dG*d[5mC]*dA*e[5mC]) [compound 398173] : ____
90

Reported % Inhibition of PTP1B mRNA, substance 398105 (antisense eT*eG*d[5mC]*dA*d[5mC]*dA*dG*dG*d[5mC]*dA*dG*dG*eT*eT) [compound 398105] : ____
93

Reported % Inhibition of PTP1B mRNA, substance 399208 (antisense eA*eG*d[5mC]*dT*d[5mC]*dG*d[5mC]*dT*dA*d[5mC]*d[5mC]*dT*e[5mC]*eT) [compound 399208] : ____
96

Reported % Inhibition of PTP1B mRNA, substance 399301 (antisense eG*eT*dG*dT*dG*d[5mC]*dA*d[5mC]*dA*d[5mC]*dA*dG*e[5mC]*eT) [compound 399301] : ____
99

Reported % Inhibition of PTP1B mRNA, substance 399132 (antisense eG*eG*dG*d[5mC]*dT*dG*dA*dG*dT*dG*dA*d[5mC]*e[5mC]*e[5mC]) [compound 399132] : ____
91

Reported % Inhibition of PTP1B mRNA, substance 399113 (antisense eG*eT*dT*dA*dG*dG*d[5mC]*dA*dA*dA*dG*dG*eG*e[5mC]) [compound 399113] : ____
90

Reported % Inhibition of PTP1B mRNA, substance 399173 (antisense eA*eT*dG*d[5mC]*dT*dA*dG*dT*dG*d[5mC]*dA*d[5mC]*eT*eA) [compound 399173] : ____
92
